# target of assay: kappa opioid receptor (Homo sapiens)
# Construct: grown in complete Ham's F-12 medium
# Sequence (P41145 whole entry): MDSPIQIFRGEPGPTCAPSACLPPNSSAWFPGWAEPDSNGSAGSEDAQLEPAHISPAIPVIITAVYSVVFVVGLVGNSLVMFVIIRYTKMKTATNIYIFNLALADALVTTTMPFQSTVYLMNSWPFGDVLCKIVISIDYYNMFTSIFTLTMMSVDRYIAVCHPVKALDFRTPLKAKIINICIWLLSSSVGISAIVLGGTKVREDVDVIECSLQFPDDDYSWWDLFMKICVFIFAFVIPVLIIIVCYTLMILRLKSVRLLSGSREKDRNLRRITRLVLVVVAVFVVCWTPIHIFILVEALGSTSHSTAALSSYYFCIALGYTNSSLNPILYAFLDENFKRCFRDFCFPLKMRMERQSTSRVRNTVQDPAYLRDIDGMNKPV
# measurement protocol: Invitro KOR agonistic activity, cAMP based functional assay
# Assay type: cell-based
measurement label: EC50 (nM)

CN(C(=O)COc1ccc(NS(=O)(=O)N2CCCC2)c2ncccc12)[C@H](CN1CC[C@H](O)C1)c1ccccc1 [Compound 38]
0.95
COC(=O)Nc1cccc([C@@H](CN2CC[C@H](O)C2)N(C)C(=O)COc2ccc3c(c2)OCO3)c1 [Compound 58]
0.098
CN(C(=O)COc1ncc2ccc(Br)cc2n1)[C@H](CN1CC[C@H](O)C1)c1ccccc1 [Compound 28]
1.42
CN(C(=O)COc1ccc2ncccc2c1)[C@H](CN1CC[C@H](O)C1)c1ccccc1 [Compound 19]
1.31

Recorded values, source patent US20170007610A1.
